# Test system: HaCaT cells
# Test summary: MTT assay for cell viability, HaCaT cells
# Format: cell-based
# Particulars: 24 h treatment, normal human keratinocytes, mean ± SD, n = 4
# Protocol: We first investigated the dose-dependent effects of all five compounds on the cell viability of human skin cancer cell line, SCC13 as well as an immortalized human skin keratinocyte cell line, HaCaT through MTT assay. […] IC50 and IC90 values for these compounds against these two cell lines were calculated (Table 1). There were statistically significant differences between these two values with p < 0.05. All cell lines were seeded on a 96-well cell culture plate at 2 × 10^5 cells per well. […]
Property: IC90 (nM)
Give bare numbers, in nM.

Cpd smiles: Cc1ccc(S(=O)(=O)n2cc3c4c2C(=O)C(NCc2ccccc2)=CC4=NCC3)cc1
Unit tag: nM
IC90: 870

Cpd smiles: O=C1C(NCCc2ccc3c(c2)OCO3)=CC2=NCCc3c[nH]c1c32
Unit tag: nM
IC90: 4230

Cpd smiles: Cc1ccc(S(=O)(=O)n2cc3c4c2C(=O)C(NCCc2ccc5c(c2)OCO5)=CC4=NCC3)cc1
Unit tag: nM
IC90: 1320

Cpd smiles: Cc1ccc(S(=O)(=O)n2cc3c4c2C(=O)C(NCc2ccco2)=CC4=NCC3)cc1
Unit tag: nM
IC90: 9430

Now for a further compound.
Task: Form field: reported IC90 of O=C1C(NCc2cccs2)=CC2=NCCc3c[nH]c1c32
Result: 2070
